- system.name: Bovine trypsin (Bos taurus, UniProt P00760)
- Construct: Bovine trypsin is purchased from Worthington Biochemicals, Freehold, N.J; purchased Worthington Biochemicals, Freehold, N.J
- Sequence (P00760 24-246): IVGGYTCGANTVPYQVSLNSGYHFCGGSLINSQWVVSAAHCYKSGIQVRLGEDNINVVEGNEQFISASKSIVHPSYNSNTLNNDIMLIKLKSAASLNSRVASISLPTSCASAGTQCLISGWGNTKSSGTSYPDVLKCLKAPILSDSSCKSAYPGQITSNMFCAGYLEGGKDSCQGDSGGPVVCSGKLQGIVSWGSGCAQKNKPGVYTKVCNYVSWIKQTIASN
- assay.notes: Kass for trypsin, chromogenic substrate
- Type: biochemical

>  <molecule>
N=C(N)c1ccc(CNC(=O)[C@@H]2CCCN2C(=O)[C@@H](CC2CCCCC2)NCC(=O)O)cc1

>  <Kass Trypsin>
250. × 10^6 (L/mole)

$$$$
>  <molecule>
N=C(N)c1ccc(CNC(=O)[C@@H]2C[C@@H]3CCCC[C@@H]3N2C(=O)[C@H]2C[C@H]3CCCC[C@H]3CN2)cc1 (relative stereo)

>  <Kass Trypsin>
100. × 10^6 (L/mole)

$$$$
>  <molecule>
CCS(=O)(=O)N[C@H](Cc1ccccc1)C(=O)N1[C@H](C(=O)NCc2ccc(C(=N)N)cc2)C[C@@H]2CCCC[C@@H]21 (relative stereo)

>  <Kass Trypsin>
110. × 10^6 (L/mole)

$$$$
>  <molecule>
N=C(N)c1ccc(CNC(=O)[C@@H]2C[C@@H]3CCCC[C@@H]3N2C(=O)[C@@H]2NCC[C@@H]3CCCC[C@@H]32)cc1 (relative stereo)

>  <Kass Trypsin>
43. × 10^6 (L/mole)

$$$$
>  <molecule>
N=C(N)c1ccc(CNC(=O)[C@@H]2CCCN2C(=O)[C@@H](CC2CCCCC2)NCC(=O)O)c(F)c1

>  <Kass Trypsin>
240. × 10^6 (L/mole)

$$$$
>  <molecule>
N=C(N)c1ccc(CNC(=O)[C@@H]2CCCN2C(=O)[C@H](N)CC2CCCCC2)cc1 [Example 51, D-Cha-Pro-p-NHCH2 C6 H4 C(NH)NH2.2HCl]

>  <Kass Trypsin>
27. × 10^6 (L/mole)

$$$$
>  <molecule>
N=C(N)c1ccc(CNC(=O)[C@@H]2C[C@@H]3CCCC[C@@H]3N2C(=O)[C@@H](CC2CCCCC2)NCC(=O)O)cc1 (relative stereo)

>  <Kass Trypsin>
940. × 10^6 (L/mole)

$$$$
>  <molecule>
CCS(=O)(=O)N[C@H](CC1CCCCC1)C(=O)N1CCC[C@H]1C(=O)NCc1ccc(C(=N)N)cc1

>  <Kass Trypsin>
90. × 10^6 (L/mole)

$$$$
>  <molecule>
N=C(N)c1ccc(CNC(=O)[C@@H]2C[C@@H]3CCCC[C@@H]3N2C(=O)[C@@H](Cc2ccccc2)NCC(=O)O)cc1 (relative stereo)

>  <Kass Trypsin>
82. × 10^6 (L/mole)

$$$$
>  <molecule>
N=C(N)c1ccc(CNC(=O)[C@@H]2CCCN2C(=O)[C@@H](CC2CCCCC2)NCCC(=O)O)cc1

>  <Kass Trypsin>
47. × 10^6 (L/mole)

$$$$

###

- system.name: t-PA (Homo sapiens, UniProt P00750)
- Construct: purchased American Diagnostica, Greenwich, Conn
- Sequence (P00750 36-562): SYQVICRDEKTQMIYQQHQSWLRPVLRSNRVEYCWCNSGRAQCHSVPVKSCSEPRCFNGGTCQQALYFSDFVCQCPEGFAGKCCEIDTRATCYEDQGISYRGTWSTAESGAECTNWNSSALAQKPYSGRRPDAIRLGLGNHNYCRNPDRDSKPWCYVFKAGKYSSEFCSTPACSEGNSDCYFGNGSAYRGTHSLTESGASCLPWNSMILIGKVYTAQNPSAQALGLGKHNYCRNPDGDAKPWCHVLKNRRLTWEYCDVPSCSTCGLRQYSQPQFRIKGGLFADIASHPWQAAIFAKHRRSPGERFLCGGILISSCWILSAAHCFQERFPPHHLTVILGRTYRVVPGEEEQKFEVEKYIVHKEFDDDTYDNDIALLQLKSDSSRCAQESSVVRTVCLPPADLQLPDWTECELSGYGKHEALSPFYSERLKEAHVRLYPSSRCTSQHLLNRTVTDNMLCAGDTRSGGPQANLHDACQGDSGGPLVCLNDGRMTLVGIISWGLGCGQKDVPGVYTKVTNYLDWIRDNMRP
- assay.notes: Kass for t-PA, chromogenic substrate
- Format: biochemical
Counter-ions that a name gives are not always drawn.
quantity: Kass t-PA

>  <molecule>
N=C(N)c1ccc(CNC(=O)[C@@H]2CCCN2C(=O)[C@H](N)CC2CCCCC2)cc1 [Example 51, D-Cha-Pro-p-NHCH2 C6 H4 C(NH)NH2.2HCl]

>  <system.name>
t-PA (Homo sapiens, UniProt P00750)

>  <quantity>
Kass t-PA

>  <endpoint.value>
0.01 × 10^6 (L/mole)

$$$$
>  <molecule>
N=C(N)NCCCCCNC(=O)[C@@H]1CCCN1C(=O)[C@H](N)Cc1ccccc1 [Example 6, D-Phe-Pro-NH(CH2)5 NHC(NH)NH2.HCl]

>  <system.name>
t-PA (Homo sapiens, UniProt P00750)

>  <quantity>
Kass t-PA

>  <endpoint.value>
< 0.001

$$$$
>  <molecule>
CCS(=O)(=O)N[C@H](Cc1ccccc1)C(=O)N1CCC[C@H]1C(=O)NCCCCNC(=N)N [Example 1, EtSO2 -D-Phe-Pro-Agm.HCl]

>  <system.name>
t-PA (Homo sapiens, UniProt P00750)

>  <quantity>
Kass t-PA

>  <endpoint.value>
0.082

$$$$
